Answer each item with its documented logP.
- test: method code SF-AS, from Korenman, Y.; Danilov, N. (1990). Extraction of alkyl salicylates from aqueous media. Journal of Applied Chemistry of the USSR, 63(1)125-129.
Reply briefly: the number, and no unit.

Briefly, logP measured for CCCOC(=O)c1ccccc1O : 3.8

Briefly, logP measured for COC(=O)c1ccccc1O : 2.08

Briefly, logP measured for CCCCOC(=O)c1ccccc1O : 4.63

* * *

attribute.measured: logP
Reply briefly: the number, and no unit.

Briefly, logP measured for C=CCCCCCC : 4.72

Briefly, logP measured for CCCCCBr : 3.32

* * *

attribute.measured: logP
Reply briefly: the number, and no unit.

Briefly, logP measured for O=C1/C(=C/c2cccc(Cl)c2)CCCc2ccccc21 : 5.22

* * *

- test: method code SF-AS, from DOI: 10.1016/s0045-6535(00)00181-8, PMID: 11272912
attribute.measured: logP
Reply briefly: the number, and no unit.

Briefly, logP measured for COc1cc(C=O)c(OC)c(OC)c1 : 1.91

* * *

- test: method code SF, from DOI: 10.1016/0168-3659(92)90078-6
- run.parameters: pH 7.0
Answer each item with its documented logD.

Briefly, logD measured for CCCC(C)C(=O)OCC1CCC(n2cnc3c(O)ncnc32)O1 (stereo not drawn) : 1

Briefly, logD measured for CC(C)(C)C(=O)OCC1CCC(n2cnc3c(O)ncnc32)O1 (stereo not drawn) : 0.6

Briefly, logD measured for CC(C)C(=O)OCC1CCC(n2cnc3c(O)ncnc32)O1 (stereo not drawn) : 0.02

* * *

Answer each item with its documented logD.
- test: method code SF, from DOI: 10.1080/09553008714551831, PMID: 3497891
- run.parameters: pH 7.4
Reply briefly: the number, and no unit.

Briefly, logD measured for COC(=O)C(=Cc1cnc(S(C)=O)n1C)C(=O)OC (stereo not drawn) : -0.43

Briefly, logD measured for COC(=O)C(=Cc1cnc(S(C)(=O)=O)n1C)C(=O)OC : 0.49

Briefly, logD measured for CC(OCC=CCO)N1C=CNC1[N+](=O)[O-] (stereo not drawn) : -0.28

* * *

attribute.measured: logP

Briefly, logP measured for CC(C)C(C(=O)O)c1ccc(OC(F)F)cc1 (stereo not drawn) : 3.03

Briefly, logP measured for COc1ccc(C(C(=O)O)C(C)C)cc1 (stereo not drawn) : 2.5

Briefly, logP measured for CC(C)C(C(=O)O)c1ccc(Cl)cc1 (stereo not drawn) : 3.38

* * *

- test: method code SF-RC, from DOI: 10.1016/s0969-8043(00)00269-4, PMID: 11200881
- run.parameters: pH 7.4
attribute.measured: logD
Reply briefly: the number, and no unit.

Briefly, logD measured for CN1CCc2cc(Cl)c(O)cc2[C@@H](c2ccccc2)C1 : 2.87

Briefly, logD measured for COc1ccc(C2CNC(=O)C2)cc1OC1CCCC1 (centres undefined) : 2.17

Briefly, logD measured for CN1CCc2c(cc(O)c(O)c2Cl)C(c2ccccc2)C1 (centres undefined) : 1.4

Briefly, logD measured for CCOC(=O)c1ncn2c1CN(C)C(=O)c1cc(F)ccc1-2 : 1.26

* * *

Answer each item with its documented logP.

Briefly, logP measured for Fc1ccccc1 : 2.01

Briefly, logP measured for CC(C)=O : -0.17

* * *

- test: method code SF-AS, from DOI: 10.1016/s0021-9673(01)91572-9, PMID: 2376602
- run.parameters: pH 7.0
Answer each item with its documented logD.

Briefly, logD measured for Nc1ncnc2c1ncn2C1C=C(CO)C(O)C1O (stereo not drawn) : -1.3

Briefly, logD measured for Nc1nc(=O)n([C@H]2CC[C@@H](CO)O2)cc1F : -1.05

Briefly, logD measured for Nc1ccn([C@@H]2C=C(CO)[C@@H](O)[C@H]2O)c(=O)n1 : -2.3

* * *

attribute.measured: logP
Reply briefly: the number, and no unit.

Briefly, logP measured for CC(C(=O)O)c1ccc2c(c1)[nH]c1ccc(Cl)cc12 (stereo unspecified) : 4.04

* * *

Answer each item with its documented logP.
Reply briefly: the number, and no unit.

Briefly, logP measured for CCN(CC)C(=O)C(C#N)=Cc1cc(OCOC(=O)C(C)(C)C)c(OCOC(=O)C(C)(C)C)c([N+](=O)[O-])c1 : 3.86

Briefly, logP measured for CCN(CC)C(=O)C(C#N)=Cc1cc(OC(=O)CC(=O)C(C)(C)C)c(OC(=O)CC(=O)C(C)(C)C)c([N+](=O)[O-])c1 : 3.99

* * *

- test: method code SF-AS, from Korenman, Y.; Sotnikova, G. (1975). Extraction of vanillins from aqueous solutions. Zh. Prikl. Khim., 48(1)188-191.
attribute.measured: logP
Reply briefly: the number, and no unit.

Briefly, logP measured for COc1ccc(C=O)cc1O : 0.97

* * *

- test: method code SF, from DOI: 10.1021/jm9405147, PMID: 8576915
attribute.measured: logP
Reply briefly: the number, and no unit.

Briefly, logP measured for NC1=CC(=O)c2ccccc2C1=O : 1.77

Briefly, logP measured for CC1=C(N2CC2)C(=O)C(CCOC(N)=O)=C(N2CC2)C1=O : 0.16

Briefly, logP measured for CC1=C(N2CC2)C(=O)C(Cl)=C(N2CC2)C1=O : 1.2

Briefly, logP measured for NC1=C(Cl)C(=O)c2ccccc2C1=O : 2.08

Briefly, logP measured for CC1=C(N2CC2)C(=O)C(Br)=C(N2CC2)C1=O : 1.36

* * *

Answer each item with its documented logP.

Briefly, logP measured for Clc1ccc(-c2c(Cl)ccc(Cl)c2Cl)c(Cl)c1 : 6.31

Briefly, logP measured for Clc1cccc(-c2cccc(Cl)c2Cl)c1 : 5.57

Briefly, logP measured for Clc1cccc(-c2ccccc2Cl)c1 : 5.02

Briefly, logP measured for Clc1ccccc1-c1cccc(Cl)c1Cl : 5.31

* * *

- test: method code SF-GLC, from DOI: 10.1016/s0021-9673(00)92516-0
attribute.measured: logP
Reply briefly: the number, and no unit.

Briefly, logP measured for ClCc1ccc(Cl)cc1Cl : 3.82

* * *

- test: method code SF-AS, from DOI: 10.1002/jps.2600630206, PMID: 4204981
Answer each item with its documented logP.

Briefly, logP measured for O=C(O)C1CCc2ccccc2O1 (configuration not stated) : 1.9

Briefly, logP measured for CCC(C)(Oc1ccc(Cl)cc1)C(=O)O (configuration not stated) : 2.9

* * *

- test: method code G-HPLC, from DOI: 10.6028/nbs.ir.81-2406
attribute.measured: logP
Reply briefly: the number, and no unit.

Briefly, logP measured for Cc1ccc(C)c(O)c1C : 2.67

* * *

attribute.measured: logP
Reply briefly: the number, and no unit.

Briefly, logP measured for COC1=CC(=NO)CC(C)C12Oc1c(Cl)c(OC)cc(OC)c1C2=O (stereo unspecified) : 2.31

* * *

- test: method code SF, from Kruglik, P.; Leschev, M.; Rakhman'ko, M.; Bubel, N.; Asratyan, V. (1991). Extraction of 1,2,4-triazole and its derivatives by organic solvents. 64(8)1721-1724.
attribute.measured: logP

Briefly, logP measured for CC(C)CCn1cnc([N+](=O)[O-])n1 : 1.26

* * *

- test: method code SF-GLC, from DOI: 10.1016/0378-4274(82)90116-3, PMID: 7090003
Is logP at least 1? Then 1.0. If not, 0.0.

Does logP meet or surpass 1 for C=CC(=O)OCC(C)C ?
1.0

Does logP meet or surpass 1 for C=C(C)C(=O)OCC(C)O (stereo unspecified) ?
0.0

Does logP meet or surpass 1 for C=CC(=O)OCCO ?
0.0

Does logP meet or surpass 1 for C=C(C)C(=O)OC(C)(C)C ?
1.0

Does logP meet or surpass 1 for C=C(C)C(=O)OCC(C)C ?
1.0

Does logP meet or surpass 1 for C=C(C)C(=O)OCCO ?
0.0

* * *

Answer each item with its documented logD.
- test: method code SF-HPLC, from DOI: 10.1002/jps.2600750520, PMID: 3735094
- run.parameters: pH 4.0

Briefly, logD measured for CC(C)COC(=O)n1cc(F)c(=O)[nH]c1=O : 0.87

Briefly, logD measured for COC(=O)n1cc(F)c(=O)[nH]c1=O : -0.68

Briefly, logD measured for CCOC(=O)n1cc(F)c(=O)[nH]c1=O : -0.17

Briefly, logD measured for CCCCOC(=O)n1cc(F)c(=O)[nH]c1=O : 0.89

* * *

- test: method code SF-AS, from DOI: 10.1021/jm991080o, PMID: 10579844
- run.parameters: pH 7.4
Answer each item with its documented logD.
Reply briefly: the number, and no unit.

Briefly, logD measured for CCC(O)c1c(O)c(=O)cc(C)n1C (configuration not stated) : -0.13

Briefly, logD measured for CCc1c(O)c(=O)ccn1CCOC(C)=O : -0.24

* * *

- test: method code SF-HPLC, from DOI: 10.1016/s0223-5234(97)84356-5
attribute.measured: logP
Reply briefly: the number, and no unit.

Briefly, logP measured for CC(=O)Nc1nc2c(ncn2COCCOC(C)=O)c(=O)[nH]1 : -0.83

Origin of values: the SangsterLogP compilation
